Test system: SW-620 colon
ASSAY REMARKS: NCI-60 one-dose screen, 48 h (100 = growth as untreated, 0 = no growth, -100 = all killed)
ASSAY CONTEXT: 10 µM unless noted
Compounds without any hit were thinned out: in the full panel of roughly 83,000, 20% have a hit. Calls of active or inactive are those of the source. Rule for the calls: active = growth percent below 10; inactive = the rest.
READOUT TYPE: growth

# COMPOUND, TARGET ENTITY, RESULT
data = [
    ("O=[N+]([O-])c1ccc2[nH]c3nccc(NCc4cccc(Cl)c4)c3c2c1", "SW-620 colon", "63.6% (inactive)"),
    ("O=C(Nc1ccc2ncsc2c1)c1csc(Nc2ccc3[nH]ncc3c2)n1", "SW-620 colon", "20.9% (inactive)"),
    ("C[N+]1=C(/C=C\\C=C\\c2ccccc2)C(C)(C)c2ccccc21", "SW-620 colon", "19.8% (inactive)"),
    ("COc1ccc(-c2cc(-c3cc(OC)c(OC)c(OC)c3)c(C#N)c(=O)n2CCCCC(=O)O)cc1", "SW-620 colon", "98% (inactive)"),
    ("CCN(CC)CCOc1ccccc1C", "SW-620 colon", "107% (inactive)"),
    ("O=C1C(c2c[nH]c3ccccc23)=C(c2coc3cc(Br)ccc23)C(=O)N1O", "SW-620 colon", "102% (inactive)"),
    ("O=C1OCC2=C1C(c1cccc(C(F)(F)F)c1)c1cc3c(cc1N2CCO)CCC3 (stereo not given)", "SW-620 colon", "24% (inactive)"),
    ("COc1cccc(NC(=O)c2sc3nc(C)c(C(O)c4ccccc4)cc3c2N)c1 (stereo not given)", "SW-620 colon", "26.5% (inactive)"),
    ("CC/C(=C(/c1ccc(Cl)cc1)c1ccc(OCCN2CCOCC2)cc1)c1ccccc1", "SW-620 colon", "83.7% (inactive)"),
    ("COc1c(O)c(O)cc2c3c(oc12)CC(c1ccc2c(c1)OCO2)CC3=O (stereo not given)", "SW-620 colon", "38.7% (inactive)"),
]
